Target: Sodium channel alpha subunits; brain (Types I, II, III) (Rattus norvegicus, UniProt P04775+P04774+P08104)
Assay: Concentration required to inhibit [3H]BTX binding to Sodium channel of rat brain
What IC50 was measured for each of the following?
# output: bare number, implied unit µM

Tell me its IC50 given c1ccc(-c2ccc(-c3c[nH]c(CC4CCCCC4)n3)cc2)cc1 as the entry.
0.07

Tell me its IC50 given CCCCCC(CCCCC)c1nc(-c2ccc(-c3ccccc3)cc2)c[nH]1 as the entry.
0.008

Tell me its IC50 given CCCC(CCC)c1nc(-c2ccc(C(C)(C)C)cc2)c[nH]1 as the entry.
0.03

Tell me its IC50 given Nc1nnc(-c2cccc(Cl)c2Cl)c(N)n1 as the entry.
31

Tell me its IC50 given c1ccc(-c2c[nH]c([C@H]3Cc4c([nH]c5ccccc45)[C@@H](c4ccccc4)N3)n2)cc1 as the entry.
1.46

Tell me its IC50 given CCCCCC(CCCCC)c1nc(-c2ccccc2)c[nH]1 as the entry.
0.086

Tell me its IC50 given CCCCCCc1nc(-c2ccc(CC(C)C)cc2)c[nH]1 as the entry.
0.028

Tell me its IC50 given Cc1nc(-c2ccc(-c3ccccc3)cc2)c[nH]1 as the entry.
1.46

Tell me its IC50 given CCCCCC(CCCCC)c1nc(-c2ccc(F)cc2)c[nH]1 as the entry.
0.025

Tell me its IC50 given CCCC(CCC)c1nc(-c2ccc(F)cc2)c[nH]1 as the entry.
0.518

Tell me its IC50 given NC(=O)N1c2ccccc2C=Cc2ccccc21 [CARBAMAZEPINE] as the entry.
167

Tell me its IC50 given CCCC(CCC)c1nc(-c2ccc(-c3ccc(Br)cc3)cc2)c[nH]1 as the entry.
0.322
